- System: plasmodium berghei
- Assay: suppression of parasitemia in mice infected with plasmodium berghei
- Type: in vivo
- Reported Conditions: mice, s.c., .30 mg/kg on days 1-3; 10th day
Structures can show the parent of a compound that is named as a salt.
The reader will find reported Mean % Parasitemia values listed item by item below.
A number alone suffices; assume %.

Examples with answers:
CNC(=N)NC(=O)Nc1c(C)cc(Br)cc1Cl.Cl [Compound C]	33.40
CNC(=N)NC(=O)Nc1c(C)cccc1Br [Compound B, hydrochloride]	29.1

Which measured Mean % Parasitemia belongs to CCCN=C(NC)NC(=O)Nc1c(C)cccc1C [Compound D, hydrochloride] , tested on plasmodium berghei?
26.5

Which measured Mean % Parasitemia belongs to CCCNC(=O)NC(=N)Nc1c(Cl)cccc1Cl [Compound A] , tested on plasmodium berghei?
28.5

---

- Test system: plasmodium berghei
- Assay: suppression of parasitemia in mice infected with plasmodium berghei
- Assay type: in vivo
- Reported Conditions: Plasmodium berghei, sc, 144 h; mice, s.c.; levels of parasitemia, 6th day; read-out: SED50 (Suppressant Effective Dose50)
Where a name gives a salt, the structure may show the parent alone.
Readout: ED50 (mg/kg)
A number alone suffices; assume mg/kg.

Which value of ED50 has been reported for Cc1cccc(C)c1NC(=O)NC(=N)NC(C)C.Cl [Compound E] in the records?
1.52

Which value of ED50 has been reported for CCCN=C(NC)NC(=O)Nc1c(C)cccc1C [Compound D, hydrochloride] in the records?
2.09

Which value of ED50 has been reported for CNC(=N)NC(=O)Nc1c(C)cccc1Br [Compound B, hydrochloride] in the records?
1.66

Which value of ED50 has been reported for CCCNC(=O)NC(=N)Nc1c(Cl)cccc1Cl [Compound A] in the records?
1.05

Which value of ED50 has been reported for CNC(=N)NC(=O)Nc1c(C)cc(Br)cc1Cl.Cl [Compound C] in the records?
1.39

---

The reader will find reported LD50 values listed item by item below.
- Assay: LD50 in mice
- Reported Conditions: mouse, in vivo
Counter-ions that a name gives are not always drawn.

Examples with answers:
CCCN=C(NC)NC(=O)Nc1c(C)cccc1C [Compound D, hydrochloride]	222 to 366 mg/kg
CCCNC(=O)NC(=N)Nc1c(Cl)cccc1Cl	> 600 mg/kg
Cc1cccc(C)c1NC(=O)NC(=N)NC(C)C.Cl	82 to 135 mg/kg

Now look at this entry.
Which value of LD50 has been reported for CNC(=N)NC(=O)Nc1c(C)cccc1Br [Compound B, hydrochloride] in the records?
82 to 135 mg/kg

---

The reader will find reported Mean % Suppression values listed item by item below.
- Test system: plasmodium berghei
- Assay: suppression of parasitemia in mice infected with plasmodium berghei
- Format: in vivo
- Reported Conditions: mice, s.c., .20 mg/kg on days 1-3; 4th day
Structures can show the parent of a compound that is named as a salt.

CNC(=N)NC(=O)Nc1c(C)cc(Br)cc1Cl.Cl	4.8%

Which value of Mean % Suppression has been reported for CCCNC(=O)NC(=N)Nc1c(Cl)cccc1Cl in the records?
23.8%

Which value of Mean % Suppression has been reported for CNC(=N)NC(=O)Nc1c(C)cccc1Br [Compound B, hydrochloride] in the records?
4.8%

Which value of Mean % Suppression has been reported for Cc1cccc(C)c1NC(=O)NC(=N)NC(C)C.Cl in the records?
0%

Which value of Mean % Suppression has been reported for CCCN=C(NC)NC(=O)Nc1c(C)cccc1C [Compound D, hydrochloride] in the records?
14.3%

---

- Tested on: plasmodium berghei
- Assay: suppression of parasitemia in mice infected with plasmodium berghei
- Format: in vivo
- Reported Conditions: mice, s.c., 2.0 mg/kg on days 1-3; 5th day
Counter-ions that a name gives are not always drawn.
Readout: Mean % Suppression (%)
A number alone suffices; assume %.

Examples with answers:
CNC(=N)NC(=O)Nc1c(C)cc(Br)cc1Cl.Cl	74.0
CNC(=N)NC(=O)Nc1c(C)cccc1Br [Compound B, hydrochloride]	53.2
CCCNC(=O)NC(=N)Nc1c(Cl)cccc1Cl	59.0
CCCN=C(NC)NC(=O)Nc1c(C)cccc1C [Compound D, hydrochloride]	54.8

Which measured Mean % Suppression belongs to Cc1cccc(C)c1NC(=O)NC(=N)NC(C)C.Cl , tested on plasmodium berghei?
52.1

---

- Tested on: plasmodium berghei
- Assay: suppression of parasitemia in mice infected with plasmodium berghei
- Assay type: in vivo
- Reported Conditions: mice, s.c., .20 mg/kg on days 1-3; 13th day
- Experimental: Five representative amidinoureas were tested in mice infected with plasmodium berghei. The five compounds tested are the following: Groups of 10 mice each were used in seven doses totaling 70 mice per compound. The protozoal infection was induced by intraperitoneal injection of 5,000,000 parasitized blood cells from a donor. The compound was administered subcutaneously in doses ranging from 0.15 to 10 mg. per kg., suspended on 0.5% methacel solution (doses expressed as base). […]
Where a name gives a salt, the structure may show the parent alone.
The reader will find reported % died values listed item by item below.
Remember to quote the unit after the number.

Examples with answers:
Cc1cccc(C)c1NC(=O)NC(=N)NC(C)C.Cl	60%
CCCN=C(NC)NC(=O)Nc1c(C)cccc1C [Compound D, hydrochloride]	60%
CNC(=N)NC(=O)Nc1c(C)cccc1Br [Compound B, hydrochloride]	20%

Which value of % died has been reported for CCCNC(=O)NC(=N)Nc1c(Cl)cccc1Cl in the records?
20%

Which value of % died has been reported for CNC(=N)NC(=O)Nc1c(C)cc(Br)cc1Cl.Cl in the records?
60%

---

- Tested on: plasmodium berghei
- Assay: suppression of parasitemia in mice infected with plasmodium berghei
- Assay type: in vivo
- Reported Conditions: mice, s.c., .30 mg/kg on days 1-3; 12th day
Structures can show the parent of a compound that is named as a salt.
Readout: % died (%)
A number alone suffices; assume %.

Examples with answers:
CCCNC(=O)NC(=N)Nc1c(Cl)cccc1Cl [Compound A]	0
CNC(=N)NC(=O)Nc1c(C)cccc1Br [Compound B, hydrochloride]	0

Which value of % died has been reported for CNC(=N)NC(=O)Nc1c(C)cc(Br)cc1Cl.Cl [Compound C] in the records?
20

Which value of % died has been reported for CCCN=C(NC)NC(=O)Nc1c(C)cccc1C [Compound D, hydrochloride] in the records?
0

---

- System: plasmodium berghei
- Assay: suppression of parasitemia in mice infected with plasmodium berghei
- Type: in vivo
- Reported Conditions: mice, s.c., .30 mg/kg on days 1-3; 10th day
Counter-ions that a name gives are not always drawn.
Readout: Mean % Suppression (%)
A number alone suffices; assume %.

CCCNC(=O)NC(=N)Nc1c(Cl)cccc1Cl [Compound A]	19.7
CNC(=N)NC(=O)Nc1c(C)cc(Br)cc1Cl.Cl [Compound C]	5.9
CCCN=C(NC)NC(=O)Nc1c(C)cccc1C [Compound D, hydrochloride]	25.4

Which value of Mean % Suppression has been reported for CNC(=N)NC(=O)Nc1c(C)cccc1Br [Compound B, hydrochloride] in the records?
18.0

---

- System: plasmodium berghei
- Assay: suppression of parasitemia in mice infected with plasmodium berghei
- Type: in vivo
- Reported Conditions: mice, s.c., .20 mg/kg on days 1-3; 5th day
Where a name gives a salt, the structure may show the parent alone.
Readout: Mean % Parasitemia (%)
A number alone suffices; assume %.

Examples with answers:
CNC(=N)NC(=O)Nc1c(C)cc(Br)cc1Cl.Cl	6.25
CCCN=C(NC)NC(=O)Nc1c(C)cccc1C [Compound D, hydrochloride]	7.30
CNC(=N)NC(=O)Nc1c(C)cccc1Br [Compound B, hydrochloride]	6.90
CCCNC(=O)NC(=N)Nc1c(Cl)cccc1Cl	6.80

Now look at this entry.
Which measured Mean % Parasitemia belongs to Cc1cccc(C)c1NC(=O)NC(=N)NC(C)C.Cl , tested on plasmodium berghei?
7.00

---

- Test system: plasmodium berghei
- Assay: suppression of parasitemia in mice infected with plasmodium berghei
- Assay type: in vivo
- Reported Conditions: mice, s.c., 2.0 mg/kg on days 1-3; 10th day
We label by threshold. Values of Mean % Parasitemia strictly beneath 20% are 1. Values of 20% and up are 0.

Cc1cccc(C)c1NC(=O)NC(=N)NC(C)C.Cl	0
CCCNC(=O)NC(=N)Nc1c(Cl)cccc1Cl	1

Attention now turns to another entry.
hey, is Mean % Parasitemia for CNC(=N)NC(=O)Nc1c(C)cc(Br)cc1Cl.Cl lower than 20% or not?
0

---

The reader will find reported Mean % Suppression values listed item by item below.
- System: plasmodium berghei
- Assay: suppression of parasitemia in mice infected with plasmodium berghei
- Type: in vivo
- Reported Conditions: mice, s.c., 2.0 mg/kg on days 1-3; 10th day
Structures can show the parent of a compound that is named as a salt.
A number alone suffices; assume %.

Examples with answers:
CNC(=N)NC(=O)Nc1c(C)cc(Br)cc1Cl.Cl [Compound C]	31.6
CCCNC(=O)NC(=N)Nc1c(Cl)cccc1Cl [Compound A]	53.5

Which value of Mean % Suppression has been reported for Cc1cccc(C)c1NC(=O)NC(=N)NC(C)C.Cl [Compound E] in the records?
22.0

Which value of Mean % Suppression has been reported for CNC(=N)NC(=O)Nc1c(C)cccc1Br [Compound B, hydrochloride] in the records?
44.2

Which value of Mean % Suppression has been reported for CCCN=C(NC)NC(=O)Nc1c(C)cccc1C [Compound D, hydrochloride] in the records?
42.3

These data points were gathered from patent US4340609A.
